Numbers sourced from PubChem BioAssay (NCATS).

target: ATPase family AAA domain-containing protein 5 (Homo sapiens) (UniProt Q96QE3); experiment: Validation screen for small molecules that inhibit ELG1-dependent DNA repair in human embryonic kidney (HEK293T) cells expressing luciferase-tagged ELG1 (AID 493107); details: HEK293T ELG1-luciferase level, luminescence, 5-fluorouridine co-treatment, 16 h; series mostly up to 46.1 µM; further: nearly all actives have a fitted effect of over 70% in size
Sequence (Q96QE3 whole entry, looked up, the tested form may be a part): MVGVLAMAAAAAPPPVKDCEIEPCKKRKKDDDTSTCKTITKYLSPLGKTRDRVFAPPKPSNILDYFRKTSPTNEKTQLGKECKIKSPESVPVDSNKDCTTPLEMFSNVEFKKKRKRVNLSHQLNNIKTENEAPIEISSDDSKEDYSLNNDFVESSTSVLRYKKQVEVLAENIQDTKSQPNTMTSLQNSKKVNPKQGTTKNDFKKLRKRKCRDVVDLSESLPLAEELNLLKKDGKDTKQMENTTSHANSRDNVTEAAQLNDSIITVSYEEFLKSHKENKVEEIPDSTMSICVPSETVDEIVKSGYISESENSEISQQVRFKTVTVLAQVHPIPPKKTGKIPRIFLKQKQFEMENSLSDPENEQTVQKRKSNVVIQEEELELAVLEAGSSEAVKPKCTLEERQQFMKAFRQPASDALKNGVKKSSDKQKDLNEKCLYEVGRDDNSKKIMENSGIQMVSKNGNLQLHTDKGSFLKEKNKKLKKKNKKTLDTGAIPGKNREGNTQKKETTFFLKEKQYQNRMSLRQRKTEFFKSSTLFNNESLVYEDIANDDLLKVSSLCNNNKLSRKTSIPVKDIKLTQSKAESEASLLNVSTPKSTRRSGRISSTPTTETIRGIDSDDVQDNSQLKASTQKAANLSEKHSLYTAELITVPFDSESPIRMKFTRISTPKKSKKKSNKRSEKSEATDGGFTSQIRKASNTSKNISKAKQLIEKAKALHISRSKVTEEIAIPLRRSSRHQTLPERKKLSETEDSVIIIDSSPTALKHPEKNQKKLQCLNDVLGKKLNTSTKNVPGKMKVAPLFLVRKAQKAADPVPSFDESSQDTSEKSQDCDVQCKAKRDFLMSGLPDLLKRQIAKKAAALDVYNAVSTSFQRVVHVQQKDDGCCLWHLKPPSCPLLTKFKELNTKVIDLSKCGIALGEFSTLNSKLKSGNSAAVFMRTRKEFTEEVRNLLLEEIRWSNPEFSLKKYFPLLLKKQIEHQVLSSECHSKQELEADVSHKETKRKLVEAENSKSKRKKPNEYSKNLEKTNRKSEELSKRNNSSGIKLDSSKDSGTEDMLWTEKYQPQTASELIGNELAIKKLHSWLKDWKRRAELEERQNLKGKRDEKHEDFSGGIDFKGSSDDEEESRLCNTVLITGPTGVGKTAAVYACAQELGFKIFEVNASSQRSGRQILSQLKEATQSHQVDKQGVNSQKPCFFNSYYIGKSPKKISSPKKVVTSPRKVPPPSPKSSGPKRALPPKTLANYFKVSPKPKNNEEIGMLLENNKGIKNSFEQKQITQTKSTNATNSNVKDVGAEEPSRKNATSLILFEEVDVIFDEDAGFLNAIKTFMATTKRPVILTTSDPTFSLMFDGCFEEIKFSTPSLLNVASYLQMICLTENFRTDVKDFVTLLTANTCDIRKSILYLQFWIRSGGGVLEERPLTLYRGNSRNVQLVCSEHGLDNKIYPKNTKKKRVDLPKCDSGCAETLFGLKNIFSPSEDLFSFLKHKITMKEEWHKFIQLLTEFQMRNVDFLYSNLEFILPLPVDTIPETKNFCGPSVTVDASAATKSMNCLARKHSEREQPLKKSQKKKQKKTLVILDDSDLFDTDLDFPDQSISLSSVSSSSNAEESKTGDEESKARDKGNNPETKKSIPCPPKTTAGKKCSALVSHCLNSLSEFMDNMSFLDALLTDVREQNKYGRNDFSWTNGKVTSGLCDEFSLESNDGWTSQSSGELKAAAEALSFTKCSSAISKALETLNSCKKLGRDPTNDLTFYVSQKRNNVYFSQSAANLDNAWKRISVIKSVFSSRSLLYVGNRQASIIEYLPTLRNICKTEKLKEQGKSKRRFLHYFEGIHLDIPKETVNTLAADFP
Records with an inconclusive call do not appear. Activity calls are given as the source filed them. The call rests on the fitted dose curve; in most records, active means well fitted inhibition curve with a large enough effect; inconclusive means small, poorly fitted or top-dose-only effect, or effect the other way; inactive means flat fitted curve, though single readings scatter.
Form entry, call: pick from True for active, False for inactive

Please review the following examples before continuing.
compound=CCCCNc1ccc(C(=O)OCCN(C)C)cc1 discrete_label=False
compound=NC(=O)N1c2ccccc2C=Cc2ccccc21 discrete_label=False
compound=CC(=O)[C@]1(O)Cc2c(O)c3c(c(O)c2[C@@H](O[C@H]2C[C@H](N)[C@H](O)[C@H](C)O2)C1)C(=O)c1ccccc1C3=O discrete_label=True
compound=N[C@@H](COP(=O)(O)O)C(=O)O discrete_label=False

Assay outcome for NC(Cc1ccc(Cl)cc1)C(=O)O (centres undefined) : what was it?
False

# repeat for CN(C)C/C=C(/c1ccc(Br)cc1)c1cccnc1
False

# repeat for C=CCc1ccccc1OCC(O)CNC(C)C (centres undefined)
False

# repeat for CC[N+](C)(C)c1cccc(O)c1
False

# repeat for NC(N)=N/N=C/c1c(Cl)cccc1Cl
False

# repeat for CC1=NS(=O)(=O)c2cc(Cl)ccc2N1
False

# repeat for OCCN1CCN(CCCN2c3ccccc3C=Cc3ccccc32)CC1
False

# repeat for C[N+](C)(C)CCCCCCCCCC[N+](C)(C)C
False

# repeat for CC(C)(Oc1ccc(CCNC(=O)c2ccc(Cl)cc2)cc1)C(=O)O
False

# repeat for COc1ccc2c(c1OC)C(=O)O[C@@H]2[C@H]1c2c(cc3c(c2OC)OCO3)CCN1C
False

# repeat for OC(CCN1CCCCC1)(c1ccccc1)C1CCCCC1 (centres undefined)
False

---

Target: D(1A) dopamine receptor (Homo sapiens) (UniProt P21728)
Sequence (P21728 whole entry, looked up): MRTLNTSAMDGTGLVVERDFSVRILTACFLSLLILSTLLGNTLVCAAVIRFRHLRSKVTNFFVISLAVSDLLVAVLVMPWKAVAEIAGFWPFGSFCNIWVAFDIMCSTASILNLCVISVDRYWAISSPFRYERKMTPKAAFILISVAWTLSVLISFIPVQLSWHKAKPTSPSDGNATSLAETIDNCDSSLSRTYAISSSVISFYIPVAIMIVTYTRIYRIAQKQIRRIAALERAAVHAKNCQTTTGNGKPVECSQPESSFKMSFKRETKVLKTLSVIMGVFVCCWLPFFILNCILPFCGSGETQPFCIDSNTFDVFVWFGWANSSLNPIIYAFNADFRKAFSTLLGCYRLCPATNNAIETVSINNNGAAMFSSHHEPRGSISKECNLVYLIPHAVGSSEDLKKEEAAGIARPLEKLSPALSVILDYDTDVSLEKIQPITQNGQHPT
Assay: HTS Assay for Allosteric Agonists of the Human D1 Dopamine Receptor: Primary Screen for Antagonists (AID 488983);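 further: calcium flux response to an EC80 dopamine challenge measured with no-wash dye; nearly all actives have a fitted effect of over 65% in size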
Conditions: D1 receptor cell assay, antagonist mode, qHTS titration; series mostly up to 41.8 µM
Procedure: Dopamine receptors (DARs) are involved in the etiology and/or therapy of a number of neuropsychiatric and endocrine disorders. […] Freshly passaged cells are plated in 1536 well black, clear bottom plates at a density of 4000 cells/well in 3 ul of complete media containing 1x tetracycline inducer. […] Following the 180 second read, 1 ul of an EC80 of dopamine is delivered by an onboard pipette head. […]
Inconclusive results are not listed. Active and inactive are the calls of the source. The call rests on the fitted dose curve; in most records, active means well fitted inhibition curve with a large enough effect; inconclusive means small, poorly fitted or top-dose-only effect, or effect the other way; inactive means flat fitted curve, though single readings scatter.
Form entry, call: pick from 1 (yes) = active, 0 (no) = inactive

molecule="CCCNC(C)C(=O)Nc1ccccc1C (stereo not drawn)" tgt="D(1A) dopamine receptor (Homo sapiens) (UniProt P21728)" discrete_label="0 (no)"
molecule=CCC(=O)c1ccc2c(c1)N(CCCN(C)C)c1ccccc1S2 tgt="D(1A) dopamine receptor (Homo sapiens) (UniProt P21728)" discrete_label="1 (yes)"
molecule=N[C@@H](COP(=O)(O)O)C(=O)O tgt="D(1A) dopamine receptor (Homo sapiens) (UniProt P21728)" discrete_label="0 (no)"
molecule=CN(C)C(=O)Oc1cccc([N+](C)(C)C)c1 tgt="D(1A) dopamine receptor (Homo sapiens) (UniProt P21728)" discrete_label="0 (no)"

Here is the next item to consider.
Assay outcome for CN(C)CCCN1c2ccccc2Sc2ccccc21 : what was it?
1 (yes)
